Provide the recorded kcat/KM for the entries that follow.
TEST SYSTEM: Factor X, P00742
Sequence (P00742 whole entry, looked up): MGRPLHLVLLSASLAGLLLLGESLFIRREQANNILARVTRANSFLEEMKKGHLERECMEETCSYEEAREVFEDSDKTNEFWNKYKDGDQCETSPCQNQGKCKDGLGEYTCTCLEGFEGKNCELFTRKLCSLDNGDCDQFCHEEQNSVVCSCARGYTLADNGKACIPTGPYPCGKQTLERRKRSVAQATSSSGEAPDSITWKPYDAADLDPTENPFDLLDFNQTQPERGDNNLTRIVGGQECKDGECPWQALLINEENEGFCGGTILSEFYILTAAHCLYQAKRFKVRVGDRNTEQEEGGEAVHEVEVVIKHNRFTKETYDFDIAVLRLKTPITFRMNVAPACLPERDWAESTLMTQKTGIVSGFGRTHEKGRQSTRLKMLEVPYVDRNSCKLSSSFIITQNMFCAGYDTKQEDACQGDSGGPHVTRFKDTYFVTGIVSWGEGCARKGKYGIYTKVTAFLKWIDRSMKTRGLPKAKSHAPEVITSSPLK
Quick note: give the figure in M⁻¹ s⁻¹, leave out the unit.

Would you kindly share the measured kcat/KM for FIXa-Y155F/N260S/R318Y/R338E/T343R/R403E/E410N (protein) chain 1: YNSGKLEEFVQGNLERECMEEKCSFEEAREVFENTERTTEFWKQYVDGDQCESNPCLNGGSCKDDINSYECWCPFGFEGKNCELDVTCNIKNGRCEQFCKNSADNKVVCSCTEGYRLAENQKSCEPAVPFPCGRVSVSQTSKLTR chain 2: VVGGEDAKPGQFPWQVVLNGKVDAFCGGSIVNEKWIVTAAHCVETGVKITVVAGEHNIEETEHTEQKRNVIRIIPHHNYSAAINKYNHDIALLELDEPLVLNSYVTPICIADKEYTNIFLKFGSGYVSGWGRVFHKGYSALVLQYLRVPLVDRATCLESTKFRIYNNMFCAGFHEGGRDSCQGDSGGPHVTEVEGTSFLTGIISWGEECAMKGKYGIYTKVSEYVNWIKNKTKLT ?
1.5e+08

# kcat/KM lookup, item FIXa-Y155F/I251S/R338E/T343R/R403E (protein) chain 1: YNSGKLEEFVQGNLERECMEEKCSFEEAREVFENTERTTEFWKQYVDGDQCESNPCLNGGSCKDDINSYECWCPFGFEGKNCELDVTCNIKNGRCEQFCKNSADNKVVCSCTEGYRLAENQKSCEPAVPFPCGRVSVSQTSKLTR chain 2: VVGGEDAKPGQFPWQVVLNGKVDAFCGGSIVNEKWIVTAAHCVETGVKITVVAGEHNIEETEHTEQKRNVSRIIPHHNYNAAINKYNHDIALLELDEPLVLNSYVTPICIADKEYTNIFLKFGSGYVSGWGRVFHKGRSALVLQYLRVPLVDRATCLESTKFRIYNNMFCAGFHEGGRDSCQGDSGGPHVTEVEGTSFLTGIISWGEECAMKGKYGIYTKVSEYVNWIKEKTKLT
3e+08

Data request, read-out kcat/KM, for FIXa Y155F/R318Y/R338E/N346D/R403E/E410N (protein) chain 1: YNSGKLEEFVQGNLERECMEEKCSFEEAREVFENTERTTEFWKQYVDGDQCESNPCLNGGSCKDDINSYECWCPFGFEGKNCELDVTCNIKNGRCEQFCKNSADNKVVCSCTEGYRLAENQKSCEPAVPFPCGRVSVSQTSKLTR chain 2: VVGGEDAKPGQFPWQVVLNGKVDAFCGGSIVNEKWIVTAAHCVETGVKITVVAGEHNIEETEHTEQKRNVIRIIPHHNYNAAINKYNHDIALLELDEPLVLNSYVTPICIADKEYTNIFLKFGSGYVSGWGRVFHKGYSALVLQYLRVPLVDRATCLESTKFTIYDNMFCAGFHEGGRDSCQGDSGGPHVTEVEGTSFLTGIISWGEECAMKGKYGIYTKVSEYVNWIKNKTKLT
6.2e+07

I'd like to know its kcat/KM. The protein in question is FIXa-A103N/N105S/K247N/N249S/R318Y/R338E/R403E/E410N (protein) chain 1: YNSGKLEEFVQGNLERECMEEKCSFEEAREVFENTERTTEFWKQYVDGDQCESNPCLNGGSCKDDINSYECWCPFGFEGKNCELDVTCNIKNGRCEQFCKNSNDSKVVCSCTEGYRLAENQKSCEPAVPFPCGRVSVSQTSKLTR chain 2: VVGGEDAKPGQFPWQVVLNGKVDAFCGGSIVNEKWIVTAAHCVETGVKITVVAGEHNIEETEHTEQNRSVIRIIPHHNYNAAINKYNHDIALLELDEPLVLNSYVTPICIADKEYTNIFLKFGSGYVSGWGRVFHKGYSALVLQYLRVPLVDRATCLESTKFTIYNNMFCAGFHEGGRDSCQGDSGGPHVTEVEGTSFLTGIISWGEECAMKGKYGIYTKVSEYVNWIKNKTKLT
1e+08
